Tested on: MCF (breast cancer)
testDescription: In vitro cytotoxicity against human cancer cell lines
cond: read-out: In vitro cytotoxicities, IC50
readoutName: IC50 (µM)
Provide only the numeric value, understood in µM.

Query string: Requested read-out IC50, target or system MCF (breast cancer), entry `N.N.O=C([O-])C1(C(=O)[O-])CCC1.[Pt+2]`
Result string: 48

====

Test system: A-431 (vulvar cancer)
testDescription: In vitro cytotoxicity against human cancer cell lines
cond: read-out: In vitro cytotoxicities, IC50
readoutName: pIC50
Remember, pIC50 is on a log scale: it is -log10 of the molar concentration.

Query string: Entry `N.N.O=C([O-])C1(C(=O)[O-])CCC1.[Pt+2]` has what pIC50?
Result string: 4.34
